Experiment: Caspase-3/7 induction in HepG2 cells by small molecules, qHTS cell viability counter screen (AID 1346981); further: nearly all actives have a fitted effect of over 30% in size
Details: CellTiter-Fluor fluorescence, 17 h; series mostly up to 92.4 µM
Results filed as inconclusive are left out. Active and inactive are the calls of the source. The call rests on the fitted dose curve; in most records, active means well fitted cell-killing curve with a large enough effect in the repeat runs; inconclusive means weak or mixed curves, or effect the other way; inactive means flat fitted curve, though single readings scatter.
Response enum: 1 (yes) = active, 0 (no) = inactive

Field: example entries. Status: answers known.
| compound | qualitative.label |
| --- | --- |
| C=C(C)C(=O)O | 0 (no) |
| Oc1ccc(Cl)cc1Cc1cc(Cl)ccc1O | 1 (yes) |
| CC(=O)O[C@]1(C(C)=O)CC[C@H]2[C@@H]3C[C@H](C)C4=CC(=O)CC[C@]4(C)[C@H]3CC[C@@]21C | 0 (no) |
| CC(COc1ccccc1)N(CCCl)Cc1ccccc1 (stereo not drawn) | 0 (no) |

# input Tell me the assay call for CC(=O)OCC1=C(C(=O)O)N2C(=O)[C@@H](NC(=O)Cc3cccs3)[C@H]2SC1 please.
# output 0 (no)

# input Kindly provide the recorded test outcome for the following compound: O=C(O)c1cc(Cl)cc(Cl)c1
# output 0 (no)

# input Hey, what did the test say about CN1C(=O)c2ccc([N+](=O)[O-])cc2C1=O ?
# output 0 (no)

# input Identify the outcome logged in this assay for the compound shown: COc1ccc(Cc2cnc(N)nc2N)cc1OC
# output 0 (no)

# input Per the records of this test, what outcome belongs to COc1cc(C(=S)N2CCOCC2)ccc1O ?
# output 0 (no)

# input Write down the call the test reported for this compound. Item: O=C1NCC2(CCN(CCc3ccccc3)CC2)O1
# output 0 (no)

# input Look up the recorded call for CC(C(O)c1ccc(O)cc1)N1CCC(Cc2ccccc2)CC1 (stereo not drawn) in this test.
# output 0 (no)

# input Identify the outcome logged in this assay for the compound shown: CC(=O)C1=C(C)[C@@H]2C[C@@]3(C1)[C@H](C)CC[C@H]3C2(C)C
# output 0 (no)

# input Field: outcome | Entry: O=C(Oc1ccccc1)c1ccccc1O
# output 0 (no)

# input Lab log entry: OCC(CO)N[C@H]1C[C@](O)(CO)[C@@H](O)[C@H](O)[C@H]1O — outcome as called in the assay?
# output 0 (no)

# input Each compound tested received a call. Report the one for N[C@@H]1CONC1=O .
# output 0 (no)

# input Dear colleague, could you share the recorded outcome for Oc1c(Cl)cc(Cl)cc1Sc1cc(Cl)cc(Cl)c1O when you have a moment?
# output 1 (yes)

# input Name the outcome recorded for NCCO in the assay.
# output 0 (no)

# input Call for entry O=C(O)CP(=O)(O)O :
# output 0 (no)

# input Returns: the outcome recorded for Cc1scc2c1N(C(=O)CN1CCN(C)CC1)c1ccccc1NC2=O in this assay.
# output 0 (no)

# input Fill in: this test's call for NC(=Nc1ccccc1)Nc1ccccc1 is ___
# output 1 (yes)

# input Lab log entry: CCC(=O)/C=C/C1C(C)=CCCC1(C)C (stereo not drawn) — outcome as called in the assay?
# output 0 (no)

# input Name the outcome recorded for CC(C)(C)NCC(O)c1cc(O)cc(O)c1 (stereo not drawn) in the assay.
# output 0 (no)

# input Record request — test call for CCc1cc(C(C)(C)C)c(O)c(C(C)(C)C)c1
# output 0 (no)

# input In this assay, the call recorded for CC1COC(=O)O1 (stereo not drawn) was what?
# output 0 (no)

###

Assay: qHTS assay to identify small molecule agonists of the constitutive androstane receptor (CAR) signaling pathway - cell viability counter screen (AID 1224836); further: nearly all actives have a fitted effect of over 45% in size
Conditions: HepG2-CYP2B6-hCAR viability, CellTiter-Fluor, 23 h, PK11195 added to every well; series mostly up to 92.4 µM
Records with an inconclusive call do not appear. Activity calls are given as the source filed them. The call rests on the fitted dose curve; in most records, active means well fitted cell-killing curve with a large enough effect in the repeat runs; inconclusive means weak or mixed curves, or effect the other way; inactive means flat fitted curve, though single readings scatter.
Choose the fitting class; nothing outside active, inactive is accepted.

Worked examples follow.
| compound | qualitative.label |
| --- | --- |
| CCC(CO)(CO)COCC(CC)(CO)CO | inactive |
| CCC(C)(Oc1ccc(C2(c3ccc(OC(C)(CC)C(=O)O)cc3)CCCCC2)cc1)C(=O)O (configuration not stated) | inactive |
| NC(N)=Nc1nc(CSCC/C(N)=N/S(N)(=O)=O)cs1 | inactive |
| Cc1ccnc2c1NC(=O)c1cccnc1N2C1CC1 | inactive |

# input Please state the recorded outcome for this compound: CNC1(C)C2CCC(C2)C1(C)C (configuration not stated)
# output inactive

# input Entry c1cnc2cc3c(cc2n1)C1CNCC3C1 : call = ?
# output inactive

# input Test call, this compound: Oc1c(Cl)cc(Cl)cc1Sc1cc(Cl)cc(Cl)c1O
# output inactive

# input Record request — test call for COc1ccc(Cc2cnc(N)nc2N)cc1OC
# output inactive

# input Per the records of this test, what outcome belongs to CC(C)(C)c1ccccc1 ?
# output inactive

###

Experiment: qHTS assay to identify small molecule agonists of the hypoxia (HIF-1) signaling pathway - cell viability counter screen (AID 1224844); further: nearly all actives have a fitted effect of over 50% in size; further: potency means the concentration at half of the fitted maximal effect
Conditions: HRE-bla ME-180 viability, CellTiter-Glo luminescence, 17 h; series mostly up to 76.8 µM
Text: National Center for Advancing Translational Sciences [NCATS] NIH Chemical Genomics Center [NCGC] U.S. Environmental Protection Agency [EPA] National Institutes of Environmental Health Sciences [NIEHS] National Toxicology Program [NTP] U.S. Food and Drug Administration [FDA] Hypoxia-inducible factor-1 (HIF-1) is the major hypoxia-regulated transcription factor that controls cellular responses to low oxygen concentration. […]
Inconclusive results are not listed. Calls of active or inactive are those of the source. The call rests on the fitted dose curve.
result.type: Potency

Example cases with answers are listed next.
| compound | result.type | result |
| --- | --- | --- |
| C=C(C)C1CC=C(C)C(OC(C)=O)C1 (stereo not drawn) | Potency | inactive |
| OCC(CO)N[C@H]1C[C@](O)(CO)[C@@H](O)[C@H](O)[C@H]1O | Potency | inactive |
| CC(C)(C)c1ccc(O)c(C(C)(C)C)c1 | Potency | 43.5 µM (active) |
| Cc1occc(=O)c1OC(=O)C(C)C | Potency | inactive |
| c1ccc2c(c1)-c1cccc3c1c-2cc1ccccc13 | Potency | 33.9 µM (active) |
| CC[C@H]1CN2CCc3cc(OC)c(OC)cc3[C@@H]2C[C@@H]1C[C@H]1NCCc2cc(OC)c(OC)cc21 | Potency | inactive |

Recorded Potency (compound O=C1OC2(c3ccc(O)cc3Oc3cc(O)ccc32)c2ccccc21 ): inactive

Recorded result, O=C(O)CCc1ccccc1 , Potency: inactive

Entry COc1nc(C)nc(Cl)c1NC1=NCCN1 — recorded Potency = inactive

// Potency lookup, compound = CC[C@@H](N)CO , result: inactive

Lab book: Potency of Nc1cc(Cl)c(-c2cc(Cl)c(N)cc2Cl)cc1Cl noted as 38.9 µM (active)

GET /value?item= CCCCN(CCO)CCCC &field=Potency returns inactive

Looking up CNC1(C)C2CCC(C2)C1(C)C (stereo not drawn) , I see its Potency listed as inactive

###

Experiment: qHTS assay to identify small molecule antagonists of the peroxisome proliferator-activated receptor delta (PPARd) signaling pathway - cell viability counter screen (AID 743213); further: nearly all actives have a fitted effect of over 50% in size
Details: PPARd-bla HEK293H viability, CellTiter-Glo luminescence, 17 h; series mostly up to 62 µM
Inconclusive results are not listed. Activity calls are given as the source filed them. Calls follow the shape of the dose curve; as a rule, active = well fitted cell-killing curve with a large enough effect in the repeat runs; inconclusive = weak or mixed curves; inactive = no such curve, though single readings can be large or run the other way.
Your response should consist of one outcome taken from active, inactive

Take a look at these entries with their results.
| compound | qualitative.label |
| --- | --- |
| [Cl][In]([Cl])[Cl] | inactive |
| O=Cc1ccc(Cl)cc1 | inactive |
| CCOc1ccccc1C(N)=O | inactive |
| CC(C)(C)NCC(O)COc1ccccc1OCC1CCCO1 (stereo not drawn) | inactive |
| Cc1scc2c1N(C(=O)CN1CCN(C)CC1)c1ccccc1NC2=O | inactive |
| CCCCC/C=C/CC1CC(=O)OC1=O (stereo not drawn) | inactive |

# input Which outcome was assigned to C=C(C)C1CC=C(C)C(OC(C)=O)C1 (stereo not drawn) in this test?
# output inactive

# input Hi team, can someone confirm the assay call for C=CC(=O)OCCCCCCOC(=O)C=C ?
# output inactive

# input In this assay, the call recorded for NCCO was what?
# output inactive

# input Hi, do you know how CCC(C)(Oc1ccc(C2(c3ccc(OC(C)(CC)C(=O)O)cc3)CCCCC2)cc1)C(=O)O (stereo not drawn) came out in this test?
# output inactive

# input Test call for this compound, please: CCOC(=O)C(C)C(C)=O (stereo not drawn)
# output inactive

# input Test call, this compound: CCn1c2ccccc2c2cc(N)ccc21
# output inactive

# input Hi, do you know how O=C(O)c1cc(Cl)cc(Cl)c1 came out in this test?
# output inactive

# input Please let me know the test result on file for O=C(O)CCc1ccccc1 .
# output inactive

# input What did this assay record as the result for Cc1cccc2n[nH]nc12 ?
# output inactive

# input I would be grateful if you could indicate the recorded call for CC(=O)N[C@@H](CS)C(=O)O .
# output inactive

# input Give the logged outcome of this assay for the following compound: CCCN[C@H]1CCc2nc(N)sc2C1
# output inactive

# input Kindly provide the recorded test outcome for the following compound: CC(=O)OCCOCCOCCOC(C)=O
# output inactive

# input Assay outcome for O=C(OCc1ccccc1)c1ccc(O)cc1 : what was it?
# output inactive

# input What was the test verdict on c1cnc2cc3c(cc2n1)C1CNCC3C1 ?
# output inactive

# input Fill in: this test's call for CC(C)(C)NC(=O)[C@@H]1CN(Cc2cccnc2)CCN1C[C@@H](O)C[C@@H](Cc1ccccc1)C(=O)N[C@H]1c2ccccc2C[C@H]1O is ___
# output inactive

# input // param item: CC(C)(C)NCC(O)c1cc(O)cc(O)c1 (stereo not drawn) ; yields the recorded call
# output inactive

# input For O=C(O[C@@H]1Cc2c(O)cc(O)cc2O[C@@H]1c1cc(O)c(O)c(O)c1)c1cc(O)c(O)c(O)c1 , what call appears in the results of this test?
# output inactive

# input How did this test come out for C1COC(NC(C2CC2)C2CC2)=N1 ?
# output inactive

# input Can you look up the reported call for c1ccc2c(c1)CCCC2C1=NCCN1 (stereo not drawn) for me?
# output inactive

# input Look up the recorded call for CC1COC(=O)O1 (stereo not drawn) in this test.
# output inactive

# input Name the outcome recorded for CCCCCCCCCCCCCCCCCl in the assay.
# output inactive

# input Record lookup: outcome of this test for CC(C)C(=O)c1c(C(C)C)nn2ccccc12 ?
# output inactive

# input For CCCNC(C)C(=O)Nc1ccccc1C (stereo not drawn) , what call appears in the results of this test?
# output inactive

# input What was the test verdict on Cc1ccnc2c1NC(=O)c1cccnc1N2C1CC1 ?
# output inactive

# input Per the assay record, what outcome was assigned to CCC(CO)(CO)COCC(CC)(CO)CO ?
# output inactive

# input Fill in: this test's call for CCN(CC)C(=O)Nc1ccc(OCC(O)CNC(C)(C)C)c(C(C)=O)c1 (stereo not drawn) is ___
# output inactive
